tested on: C. albicans 3881
endpoint: MIC (µg/mL)

                                   molecule        targetdesc  resultvalue
0  OC(CN1CCC2(CCC(Nc3ccc(Cc4ccccc4)cc3)CC2)C1)(Cn1cncn1)c1ccc(F)cc1F (stereo not shown) [Example 13]  C. albicans 3881         0.25
1  OC(CN1CCC(Nc2ccc(Cc3ccccc3)cc2)CC1)(Cn1cncn1)c1ccc(F)cc1F (stereo not shown) [Example 11]  C. albicans 3881       0.0313
2  OC(Cn1cncn1)(Cn1cncn1)c1ccc(F)cc1F [Fluconazole, fluconazole, reference compound]  C. albicans 3881            8

----------
tested on: C. albicans 3882
endpoint: MIC (µg/mL)

In [3]: df
Out[3]:
                                   compound        targetdesc  unitslabel  resultvalue
0  OC(Cn1cncn1)(Cn1cncn1)c1ccc(F)cc1F [Fluconazole, fluconazole, reference compound]  C. albicans 3882       µg/mL           16
1  OC(CN1CCC(Nc2ccc(OCCN3CCOCC3)cc2)CC1)(Cn1cncn1)c1ccc(F)cc1F (centres unmarked)  C. albicans 3882       µg/mL          0.5
2  N#Cc1ccc(-c2ccc(NC3CCN(CC(O)(Cn4cncn4)c4ccc(F)cc4F)CC3)cc2)cc1 (centres unmarked)  C. albicans 3882       µg/mL       0.0313
3  C[C@@H](c1ncncc1F)[C@](O)(Cn1cncn1)c1ccc(F)cc1F [Voriconazole, voriconazole, reference compound]  C. albicans 3882       µg/mL         0.25
4  OC(CN1CCC(Nc2ccc(Cc3ccccc3)cc2)CC1)(Cn1cncn1)c1ccc(F)cc1F (centres unmarked)  C. albicans 3882       µg/mL       0.0625
5  OC(CN1CCC(Nc2ccc(OCc3ccccc3)cc2)CC1)(Cn1cncn1)c1ccc(F)cc1F (centres unmarked)  C. albicans 3882       µg/mL      0.00391
6  OC(CN1CCC(N2CCC(Nc3ccc(Cc4ccccc4)cc3)CC2)CC1)(Cn1cncn1)c1ccc(F)cc1F (centres unmarked)  C. albicans 3882       µg/mL       0.0625

----------
Quick list: MIC per entry.
tested on: C. auris 8977; test: Candida panel MIC, serial dilution in 96-well plates; format: cell-based, Candida auris; details: Candidozyma auris, 8977, read-out: MIC C. auris 8977
endpoint: MIC

>>> df
                                   molecule  endpoint    resultvalue
0  OC(Cn1cncn1)(Cn1cncn1)c1ccc(F)cc1F [Fluconazole, fluconazole, reference compound]       MIC       16 µg/mL
1  OC(CN1CCC(N2CCC(Nc3ccc(Cc4ccccc4)cc3)CC2)CC1)(Cn1cncn1)c1ccc(F)cc1F (centres unmarked)       MIC  ≤ 0.125 µg/mL
2  OC(CN1CCC(Nc2ccc(OCc3ccccc3)cc2)CC1)(Cn1cncn1)c1ccc(F)cc1F (centres unmarked)       MIC  ≤ 0.003 µg/mL
3  OC(CN1CCC(Nc2ccc(OCCN3CCOCC3)cc2)CC1)(Cn1cncn1)c1ccc(F)cc1F (centres unmarked)       MIC     0.06 µg/mL
4  C[C@@H](c1ncncc1F)[C@](O)(Cn1cncn1)c1ccc(F)cc1F [Voriconazole, voriconazole, reference compound]       MIC       32 µg/mL
5  OC(CN1CCC2(CCC(Nc3ccc(Cc4ccccc4)cc3)CC2)C1)(Cn1cncn1)c1ccc(F)cc1F (centres unmarked)       MIC  ≤ 0.125 µg/mL
6  OC(CN1CCC(Nc2ccc(Cc3ccccc3)cc2)CC1)(Cn1cncn1)c1ccc(F)cc1F (centres unmarked)       MIC  ≤ 0.125 µg/mL
7  OC(CN1CCC2(CCC(Nc3ccc(OCCN4CCOCC4)cc3)CC2)C1)(Cn1cncn1)c1ccc(F)cc1F (centres unmarked)       MIC     0.25 µg/mL

Data provenance is patent US20240246920A1.
